Value source: PubChem BioAssay (NCI)

tested on: SNB-75 CNS; assay: NCI tumour cell line growth inhibition, 48 h
Endpoint name: TGI (µM)
The response must be a number in µM with no trailing unit.

I'm curious: which TGI was measured for N=C1C=C(N)C(=O)c2ccccc21 tested on SNB-75 CNS?
0.293

Field entry: C=C1CC(O)C2C(=C)C(=O)OC2C2C(C)C(=O)CC12 (centres undefined)
30.3

Field entry: CN1CCN(c2nc3cc(F)ccc3n3cccc23)CC1
90.7

Field entry: CCOc1ccccc1N=Cc1c2ccccc2cc2ccccc12
47.7

Field entry: Clc1ncnc2c1nc(C#Cc1ccccc1)n2C1CCCCO1 (centres undefined)
7.78

Field entry: CC(=O)[O][Hg][c]1s[c]([Hg][O]C(C)=O)[c]([Hg][O]C(C)=O)[c]1[Hg][O]C(C)=O
25.4

Field entry: COc1cc2c(=O)n(CC3CCCCC3)c3c4cc[nH]c4ncc3c2cc1OC
1.9

Field entry: C=C(Cl)CN1c2ccccc2C=Cc2ccccc21
61.9

Field entry: CC(C)(C)CC(C)(C)NCC(O)COc1ccc(C(C)(C)c2ccc(OCC(O)CNC(C)(C)CC(C)(C)C)cc2)cc1 (centres undefined)
2.79

Field entry: C1CC[N-]CC1.CC(=N\O)/C(C)=N/O.CC(=N\O)/C(C)=N/O.C[CH-]C(C)O.[Co+2]
71.4

Field entry: O=C1C(=Cc2ccc(F)cc2)C(=O)c2ccccc21
95.4

Field entry: Cc1ccsc1/C=N/Nc1cc(C)c2ccccc2n1
31.4
